# EXPERIMENTAL SYSTEM: T1, recombinant biotinylated human PAR2 extracellular domain (residues 1-75), N-terminal AviTag, C-terminal Flag … (human, UniProt P55085 26-75, biotin on the AviTag (enzymatic biotinylation))
# T1 construct: also called Bio-human-PAR2 ECD; human PAR2 ECD; not shown: N-terminal AviTag (Avidity LLC); C-terminal Flag and poly Histidine tags
# T1 sequence (P55085 26-75): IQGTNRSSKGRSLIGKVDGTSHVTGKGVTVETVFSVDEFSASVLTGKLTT
# TEST SUMMARY: HTRF competition with Par0067 IgG, scFv
Fold IC50 (pH 6.0 v pH 7.4) reference
Kindly provide the numeric value in fold only, without the unit symbol.

PaB670048 scFv (scFv, V domains shown, purified scFv; also called ZZ1KX4-E11) VH: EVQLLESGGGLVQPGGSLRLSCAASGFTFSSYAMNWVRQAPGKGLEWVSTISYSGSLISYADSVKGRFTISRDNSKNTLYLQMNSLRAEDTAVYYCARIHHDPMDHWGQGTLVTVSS VL: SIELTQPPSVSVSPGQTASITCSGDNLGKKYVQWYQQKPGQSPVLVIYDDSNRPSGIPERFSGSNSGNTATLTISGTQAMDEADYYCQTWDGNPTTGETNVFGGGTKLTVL = 9.6
PaB670085 scFv (scFv, V domains shown, purified scFv; also called ZZ1ODR-A02) VH: EVQLLESGGGLVQPGGSLRLSCAASGFTFSSYAMNWVRQAPGKGLEWVSTISYHGSHISYHHSHKGRFTISRDNSKNTLYLQMNSLRAEDTAVYYCARINNDPMDVWGQGTLVTVSS VL: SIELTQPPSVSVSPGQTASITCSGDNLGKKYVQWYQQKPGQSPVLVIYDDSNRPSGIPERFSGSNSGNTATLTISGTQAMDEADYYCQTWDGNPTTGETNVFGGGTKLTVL = 3.2
PaB670081 scFv (scFv, V domains shown, purified scFv; also called ZZ1OZA-C01) VH: EVQLLESGGGLVQPGGSLRLSCAASGFTFSSYAMNWVRQAPGKGLEWVSTISHSGHHISHHDSHHGRFTISRDNSKNTLYLQMNSLRAEDTAVYYCARINNDPMDVWGQGTLVTVSS VL: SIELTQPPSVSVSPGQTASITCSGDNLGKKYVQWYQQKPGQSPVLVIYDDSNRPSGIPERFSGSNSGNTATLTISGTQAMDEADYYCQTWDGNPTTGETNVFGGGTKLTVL = 5.1
PaB670073 scFv (scFv, V domains shown, purified scFv; also called ZZ1L3F-H03) VH: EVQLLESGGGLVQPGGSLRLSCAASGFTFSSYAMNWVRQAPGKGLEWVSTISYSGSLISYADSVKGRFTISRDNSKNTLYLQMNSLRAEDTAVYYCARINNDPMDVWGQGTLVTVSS VL: SIELTQPPSVSVSPGQTASITCSGDNLGKKYVQWYQQKPGQSPVLVIYDDSNRPSGIPERFSGSNSGNTATLTISGTQAMDEADYYCQHWHGHPHHGEHNVFGGGTKLTVL = 5.9
PaB670068 scFv (scFv, V domains shown, purified scFv; also called ZZ1KXE-B01) VH: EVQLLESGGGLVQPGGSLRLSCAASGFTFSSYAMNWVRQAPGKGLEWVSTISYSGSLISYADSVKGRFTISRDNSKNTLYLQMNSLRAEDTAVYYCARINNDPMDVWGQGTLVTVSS VL: SIELTQPPSVSVSPGQTASITCSGDNLGKKYVQWYQQKPGQSPVLVIYDDSNRPSGIPERFSGSNSGNTATLTISGTQAMDEADYYCQTWDGHHTHGEHHVFGGGTKLTVL = 5.8

// query Fold IC50 (pH 6.0 v pH 7.4) value for entry PaB670034 scFv (scFv, V domains shown, purified scFv; also called ZZ1IGF-B11) VH: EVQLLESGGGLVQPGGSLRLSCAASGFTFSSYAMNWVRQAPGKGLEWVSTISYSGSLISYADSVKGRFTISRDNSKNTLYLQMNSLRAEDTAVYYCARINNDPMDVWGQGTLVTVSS VL: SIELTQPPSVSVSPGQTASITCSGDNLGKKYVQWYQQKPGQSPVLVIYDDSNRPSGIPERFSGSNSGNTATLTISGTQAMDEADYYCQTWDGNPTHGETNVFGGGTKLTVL
2.5

// query Fold IC50 (pH 6.0 v pH 7.4) value for entry PaB670082 scFv (scFv, V domains shown, purified scFv; also called ZZ1OZA-D02) VH: EVQLLESGGGLVQPGGSLRLSCAASGFTFSSYAMNWVRQAPGKGLEWVSTISHSHSLISYAHSVHGRFTISRDNSKNTLYLQMNSLRAEDTAVYYCARINNDPMDVWGQGTLVTVSS VL: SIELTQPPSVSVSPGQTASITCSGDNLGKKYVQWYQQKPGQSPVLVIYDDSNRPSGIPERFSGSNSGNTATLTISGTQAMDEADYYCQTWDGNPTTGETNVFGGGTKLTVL
3.1

// query Fold IC50 (pH 6.0 v pH 7.4) value for entry PaB670079 scFv (scFv, V domains shown, purified scFv; also called ZZ1OZJ-G05) VH: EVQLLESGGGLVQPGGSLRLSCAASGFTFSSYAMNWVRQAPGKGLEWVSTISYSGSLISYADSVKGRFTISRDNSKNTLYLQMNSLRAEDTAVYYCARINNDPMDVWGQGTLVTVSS VL: SIELTQPPSVSVSPGQTASITCSGDNLGKKYVQWYQQKPGQSPVLVIYDDSNRPSGIPERFSGSNSGNTATLTISGTQAMDEADYYCQHWDGHHTTGETNHFGGGTKLTVL
11.1

// query Fold IC50 (pH 6.0 v pH 7.4) value for entry PaB670077 scFv (scFv, V domains shown, purified scFv; also called ZZ1OZJ-C11) VH: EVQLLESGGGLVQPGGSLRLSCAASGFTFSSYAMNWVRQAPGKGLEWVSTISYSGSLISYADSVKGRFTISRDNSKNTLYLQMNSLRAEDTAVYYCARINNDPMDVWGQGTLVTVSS VL: SIELTQPPSVSVSPGQTASITCSGDNLGKKYVQWYQQKPGQSPVLVIYDDSNRPSGIPERFSGSNSGNTATLTISGTQAMDEADYYCHHWHGHHTTGETNHFGGGTKLTVL
11.2

// query Fold IC50 (pH 6.0 v pH 7.4) value for entry PaB670076 scFv (scFv, V domains shown, purified scFv; also called ZZ1NHH-F09) VH: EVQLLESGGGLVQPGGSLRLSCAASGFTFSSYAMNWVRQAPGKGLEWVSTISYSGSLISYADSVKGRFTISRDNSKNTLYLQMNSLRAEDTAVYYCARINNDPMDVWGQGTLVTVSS VL: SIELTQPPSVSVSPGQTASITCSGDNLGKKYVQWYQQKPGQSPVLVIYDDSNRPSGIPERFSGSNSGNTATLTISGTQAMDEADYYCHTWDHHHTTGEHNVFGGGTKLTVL
6.3
